Just for reference, patent US20200002434A1 is where these values come from.

target: T1, recombinant rat ErbB2-ECD (rat, UniProt P06494 23-654); assay: indirect ELISA, coated ErbB2-ECD
T1 construct: extracellular domain
T1 sequence (P06494 23-654): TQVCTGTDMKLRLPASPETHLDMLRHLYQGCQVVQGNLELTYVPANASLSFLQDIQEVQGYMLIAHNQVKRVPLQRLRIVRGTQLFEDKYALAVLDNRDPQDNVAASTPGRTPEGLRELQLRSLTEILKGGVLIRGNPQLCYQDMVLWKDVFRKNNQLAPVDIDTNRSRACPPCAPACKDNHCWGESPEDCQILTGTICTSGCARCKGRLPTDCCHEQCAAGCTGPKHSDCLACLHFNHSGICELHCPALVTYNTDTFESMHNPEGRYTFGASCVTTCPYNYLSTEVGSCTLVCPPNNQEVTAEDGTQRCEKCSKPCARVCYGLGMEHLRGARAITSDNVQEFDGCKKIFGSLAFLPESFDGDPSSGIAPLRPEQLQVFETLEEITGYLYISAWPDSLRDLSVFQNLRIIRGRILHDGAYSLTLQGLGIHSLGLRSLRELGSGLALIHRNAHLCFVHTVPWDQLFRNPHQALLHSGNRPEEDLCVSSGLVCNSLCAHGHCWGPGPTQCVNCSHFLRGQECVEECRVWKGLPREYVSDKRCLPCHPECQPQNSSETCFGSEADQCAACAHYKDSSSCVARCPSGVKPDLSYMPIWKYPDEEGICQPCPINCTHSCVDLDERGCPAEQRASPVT
measured endpoint: binding result

4H2 chimera (antibody, V domains shown, also called 4H2 chimeric antibody) VH: QVQLQQSGAELARPGASVKMSCKASGFTFTSYTIHWVKQRPGQGLDWIGYINPSSGYTTYNQRFKDKATLTADKSSSTAYMQLSSLTSADSAVYYCARASAYSLDYWGQGTTLTVSS VL: DIQMTQSPSSLSASLGGKVTITCKASQDIDRYIAWYQHKPGKGPRLLIHYTSTLQPGIPSRFSGSGSGRNYSFSISNLEPEDIATYYCLKYDNLLWTFGGGTKLEIK = no binding
5G9 chimera (antibody, V domains shown, also called 5G9 chimeric; 5G9 chimeric antibody) VH: QVQLQQSGAELARPGASVKMSCKTSGYTFSSYTIHWVKQRPGQGLDWIGYINPSSDYTAYNQKFRDKATLTADQSSNTAYMQLSSLASADSAVYYCARASAFSLDFWGQGTTLTVSS VL: DIQMTQSPSSLSASLGGKVTISCKASHDIDRYIAWYQHKPGKGPRLLIHYTSTLQPGIPSRFSGSGSGRDYSFSISNLEPEDVATYYCLNYDNLLWTFGGGTKLEIT = no binding
4C9 chimera (antibody, V domains shown, also called 4C9 chimeric antibody) VH: QVQLQQSGAELARPGASVKMSCKASGYTFTSYTMHWVKQRPGQGLDWIGYINPSSGYTTYNQKFKDKATLTADKSSSTAYMQLSSLASADSAVYYCARASAYSLDYWGQGTTLTVSS VL: DIQMTQSPSSLSASLGGRVTITCKASHDIDRYIAWYQHKPGKGPRLLIHYTSTLQPGIPSRFSGSGSGRDYSFSISNLEPEDIATYYCLKYDNLLWTFGGGTKLEIT = no binding
